Tested on: CCRIS mutagenicity, Ames/micronucleus/aberration tests
Experiment: CCRIS mutagenicity studies
Conditions: Test System: AMES SALMONELLA TYPHIMURIUM; Strain/Indicator: TA98; Metabolic Activation: HAMSTER, LIVER, S-9, AROCLOR 1254 (10%); Method: PREINCUBATION
Source text: The CCRIS database contains chemical records with carcinogenicity, mutagenicity, tumor promotion, and tumor inhibition test results. It was developed by the National Cancer Institute (NCI). Data are derived from studies cited in primary journals, current awareness tools, NCI reports, and other sources. Test results have been reviewed by experts in carcinogenesis and mutagenesis. CCRIS provides historical information from the years 1985 - 2011. It is no longer updated. […]
Activity calls are given as the source filed them. No rule for the calls is given here.
# valid calls are active, inactive; nothing else

Query: # outcome recorded in this test, key = `CC(=O)Nc1cccc(N)c1`
Reply: active

Query: State the result this test recorded for `C=C(Cl)CCl` .
Reply: active

Query: Identify the outcome logged in this assay for the compound shown: `CC(=O)O`
Reply: inactive

Query: Recorded test call requested for `C=CCN(CC=C)CC=C`
Reply: inactive

Query: What did this assay record as the result for CCCCCCCCC/C=C/CC1CC(=O)OC1=O (configuration not stated) ?
Reply: inactive

Query: Hi team, can someone confirm the assay call for `CC(=O)Oc1ccccc1C(=O)O` ?
Reply: inactive

Query: How did this test come out for `Cc1ccc(O)c(N)c1` ?
Reply: inactive

Query: Outcome logged for `CC/C=C/C#N` in this assay:
Reply: inactive

Query: Name the outcome recorded for `C=CC(=C)C` in the assay.
Reply: inactive

Query: Identify the outcome logged in this assay for the compound shown: `COC(=O)Nc1nc2ccccc2[nH]1`
Reply: active

Query: Hello, I am checking results. What call was entered for `OCCBr` ?
Reply: inactive

Query: Tell me the assay call for `O=[N+]([O-])c1ccc(Nc2ccccc2O)c([N+](=O)[O-])c1` please.
Reply: active

Query: Please indicate how the test categorized `C=C(C)C(=O)OC(C)C` .
Reply: inactive

Query: Any idea what this test logged for `c1ccsc1` ?
Reply: inactive

Query: // outcome(item) with item = `CCNCC`
Reply: inactive

Query: For this compound, state the assay outcome: `O=CC(Cl)(Cl)Cl`
Reply: inactive

Query: Look up the recorded call for `CCC(C)(C)c1ccc(O)cc1` in this test.
Reply: inactive

Query: What classification did `OCCO` end up with in this test?
Reply: inactive

Query: Entry `NCCO` : call = ?
Reply: inactive

Query: Which outcome did this test record for the compound CCCCC(CC)COCCC#N (configuration not stated) ?
Reply: inactive

Query: Test call, this compound: `CCN(CC)c1ccc(N)cc1`
Reply: active

Query: Can you look up the reported call for `COc1ccc(N)cc1N` for me?
Reply: active

Query: For `COc1ccc(C(=O)c2ccccc2)c(O)c1` , what call appears in the results of this test?
Reply: inactive

Query: // return assay outcome for `c1ccc(P(c2ccccc2)c2ccccc2)cc1`
Reply: inactive

Query: // outcome(item) with item = `Cc1ccccc1N=Nc1ccc(N(C)C)cc1`
Reply: inactive

Query: Called result for `c1ccc2n[nH]nc2c1`
Reply: inactive

Query: Tell me the recorded outcome of this test for `CC(=O)Nc1ccc(O)cc1` .
Reply: inactive
